The measured values listed here are drawn from patent US20160130278A1.

target: human type 1 glycine transporter (GlyT1) (Homo sapiens); construct: T98G cells (glioma cells) expressing human type 1 glycine transporter (GlyT1) were used; experiment: Glycine uptake inhibition experiment ([3H]glycine uptake); type: cell-based; details: GlyT1
# log10(IC50) annotations
In plain terms, each number is the log10 of measured IC50 in nM.

Answered cases to consult:
INSERT INTO results (molecule, endpoint_value) VALUES
  ('O=C(NC(c1cccc(F)c1)C1(O)CCCC1)c1cccc(C(F)(F)F)c1Cl (stereo not shown) [Compound 65]', 2.43),
  ('O=C(NC(c1cccc(F)c1Cl)[C@]1(O)CC[C@@H](F)CC1)c1cc(F)ccc1Cl (single isomer, unassigned) [Compound 295]', 3.32),
  ('O=C(NC(c1cccc(F)c1Cl)[C@]1(O)CC[C@@H](F)CC1)c1ccc(C(F)(F)F)cc1-n1nccn1 (single isomer, unassigned) [Compound 380]', 2.43);

Enquiry: Tell me reported log10(IC50) for CCn1cc(-c2cccc(C(NC(=O)c3cc(Cl)ccc3C(F)(F)F)C3(O)CCC(F)(F)CC3)c2)cn1 (single isomer, unassigned) [Compound 217] , tested with human type 1 glycine transporter (GlyT1) (Homo sapiens).
Return: 2.76

Enquiry: Under human type 1 glycine transporter (GlyT1) (Homo sapiens): log10(IC50) value of O=C(NC(c1cccc(Cl)c1)C1(O)CCCC1)c1nccc(C(F)(F)F)c1Cl (single isomer, unassigned) [Compound 54] ?
Return: 1.76

Enquiry: # get_value(readout= log10(IC50), system= human type 1 glycine transporter (GlyT1) (Homo sapiens)) for O=C(NC(c1cccc(-c2ncccn2)c1)C1(O)CCC(F)(F)CC1)c1nccc(C(F)(F)F)c1Cl (stereo not shown) [Compound 160]
Return: 2.94

---

target: human type 1 glycine transporter (GlyT1) (Homo sapiens); construct: T98G cells (glioma cells) expressing human type 1 glycine transporter (GlyT1) were used; assay: Glycine uptake inhibition experiment ([3H]glycine uptake); type: cell-based; settings: human GlyT1
Measured Parameter: IC50 (µM)
# unit: µM | format: bare number

// known answers, use as guide
INSERT INTO results (compound, measured_parameter, endpoint_value) VALUES
  ('O=C(NC(c1ccccc1Cl)C1(O)CCC(F)(F)CC1)c1ccc(C(F)(F)F)nc1Cl (single isomer, unassigned)', 'IC50', 1.1),
  ('O=C(NC(c1ccccc1Cl)C1(O)CCC(F)(F)CC1)c1ncc(C(F)(F)F)cc1-n1nccn1 (single isomer, unassigned)', 'IC50', 1);

# context switch: different compound, same IC50
Enquiry: Hello, I am looking for reported IC50 with human type 1 glycine transporter (GlyT1) (Homo sapiens) for CS(=O)(=O)c1cc(C(F)(F)F)ccc1C(=O)NC(c1cccc(Cl)c1F)C1(O)CCC(F)(F)CC1 (single isomer, unassigned) . Could you help?
Return: 0.45

---

Entries annotated with measured pIC50
target: human type 1 glycine transporter (GlyT1) (Homo sapiens, UniProt P48067); construct: T98G cells (glioma cells) expressing human type 1 glycine transporter (GlyT1) were used; test: Glycine uptake inhibition experiment ([3H]glycine uptake); format: cell-based; conditions: GlyT1
# log scale: pIC50 equals minus log10 of the concentration in mol/L

Example compounds with recorded pIC50:
INSERT INTO results (compound, endpoint_value) VALUES
  ('O=C(NC(c1cc(Cl)ccn1)[C@]1(O)CC[C@@H](F)CC1)c1ccnc(C(F)(F)F)c1Cl (single isomer, unassigned)', 7.25),
  ('O=C(NC(c1cccc(F)c1Cl)[C@]1(O)CC[C@@H](F)CC1)c1cc(C(F)(F)F)ncc1Cl (single isomer, unassigned)', 6.82),
  ('O=C(NC(c1cccc(F)c1Cl)[C@]1(O)CC[C@@H](F)CC1)c1ccc(C(F)(F)F)cc1-n1cnnn1 (single isomer, unassigned)', 7.57),
  ('O=C(NC(c1cccc(F)c1)C1(O)CCC(F)(F)CC1)c1nccc(C(F)(F)F)c1Cl (single isomer, unassigned) [Compound 77]', 5.92),
  ('O=C(NC(c1cccc(Cl)c1)C1(O)CCCC1)c1nccc(C(F)(F)F)c1Cl (stereo not drawn) [Compound 45]', 7.05);

Pending compound:
Enquiry: # get_value(readout='pIC50', item= CN(C)C(=O)c1cccc(C(NC(=O)c2nccc(C(F)(F)F)c2Cl)C2(O)CCCC2)c1 (stereo not drawn) )
Return: 5.80

---

Readings of pIC50 for the listed compounds
biological target: human type 1 glycine transporter (GlyT1) (Homo sapiens); construct: T98G cells (glioma cells) expressing human type 1 glycine transporter (GlyT1) were used; assay: Glycine uptake inhibition experiment ([3H]glycine uptake); assay type: cell-based; settings: GlyT1
Schema: pIC50 number; meaning minus log10 of the concentration expressed in molar units.

INSERT INTO results (compound, endpoint_value) VALUES
  ('O=C(NC(c1cccc(Cl)c1)C1(O)CCCCC1)c1nccc(C(F)(F)F)c1Cl (single isomer, unassigned) [Compound 229]', 7.55);

Proceed to the following item.
Enquiry: Entry CCn1cc(-c2cccc(C(NC(=O)c3nccc(C(F)(F)F)c3Cl)C3(O)CCCC3)c2)cn1 (single isomer, unassigned) [Compound 14] has what pIC50?
Return: 7.89

---

biological target: human type 1 glycine transporter (GlyT1) (Homo sapiens, UniProt P48067); construct: T98G cells (glioma cells) expressing human type 1 glycine transporter (GlyT1) were used; test: Glycine uptake inhibition experiment ([3H]glycine uptake); type: cell-based; conditions: GlyT1
This listing pairs compounds with measured pIC50.
In plain terms, pIC50 is the concentration in mol/L turned into minus its base-10 logarithm.

Here are 2 compounds together with their reported answers.
INSERT INTO measurements (compound, endpoint_value) VALUES
  ('O=C(NC(c1cccc(F)c1Cl)[C@]1(O)CC[C@@H](F)CC1)c1nccc(C(F)(F)F)c1Cl (single isomer, unassigned) [Compound 213]', 7.43),
  ('NC(=O)c1cccc(C(NC(=O)c2nccc(C(F)(F)F)c2Cl)C2(O)CCCC2)c1 (stereo not drawn)', 6.05);

Continue with the next compound.
Enquiry: pIC50 for O=C(NC(c1cccc(Cl)c1F)C1(O)CCC(F)CC1)c1nccc(C(F)(F)F)c1Cl (single isomer, unassigned) [Compound 199] ?
Return: 7.09

---

Target: human type 1 glycine transporter (GlyT1) (Homo sapiens, UniProt P48067)
Construct: T98G cells (glioma cells) expressing human type 1 glycine transporter (GlyT1) were used
Sequence (P48067 1-706): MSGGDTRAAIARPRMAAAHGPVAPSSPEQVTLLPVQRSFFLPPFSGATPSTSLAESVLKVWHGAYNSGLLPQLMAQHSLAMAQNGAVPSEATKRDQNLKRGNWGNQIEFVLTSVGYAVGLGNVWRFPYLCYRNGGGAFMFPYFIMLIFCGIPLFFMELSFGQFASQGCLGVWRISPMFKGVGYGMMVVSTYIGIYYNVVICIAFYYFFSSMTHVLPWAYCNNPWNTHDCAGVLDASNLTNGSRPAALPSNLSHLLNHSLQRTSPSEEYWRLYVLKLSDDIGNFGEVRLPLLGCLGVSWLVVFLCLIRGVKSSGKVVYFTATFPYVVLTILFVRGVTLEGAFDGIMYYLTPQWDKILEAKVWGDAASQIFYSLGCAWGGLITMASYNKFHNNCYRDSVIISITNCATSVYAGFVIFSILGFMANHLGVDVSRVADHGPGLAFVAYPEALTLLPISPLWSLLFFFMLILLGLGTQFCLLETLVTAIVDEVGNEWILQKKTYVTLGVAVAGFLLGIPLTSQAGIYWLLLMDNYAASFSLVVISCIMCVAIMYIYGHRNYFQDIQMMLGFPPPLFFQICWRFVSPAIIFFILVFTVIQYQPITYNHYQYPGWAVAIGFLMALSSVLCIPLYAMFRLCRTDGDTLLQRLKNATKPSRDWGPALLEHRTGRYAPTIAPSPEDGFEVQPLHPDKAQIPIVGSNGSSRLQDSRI
Assay: Glycine uptake inhibition experiment ([3H]glycine uptake)
Type: cell-based
Settings: GlyT1
Measured Parameter: pIC50
Just the number, please; pIC50 means minus log10 of the concentration in mol/L.

Illustrative cases are given below, each with its answer.
INSERT INTO assay_data (molecule, endpoint_value) VALUES
  ('O=C(NC(c1cccc(Cl)n1)C1(O)CCCCC1)c1ccnc(C(F)(F)F)c1Cl (single isomer, unassigned) [Compound 385]', 7.59),
  ('O=C(NC(c1cc(Cl)ccn1)C1(O)CCC(F)(F)CC1)c1cc(C(F)(F)F)ncc1Cl (single isomer, unassigned) [Compound 348]', 6.31),
  ('CCn1cc(-c2cccc(C(NC(=O)c3nccc(C(F)(F)F)c3Cl)C3(O)CCC(F)(F)CC3)c2)cn1 (single isomer, unassigned) [Compound 91]', 5.42);

Enquiry: State the recorded pIC50 for this entry: Cc1c(Cl)ccnc1C(=O)NC(c1cccc(F)c1Cl)[C@]1(O)CC[C@@H](F)CC1 (single isomer, unassigned) [Compound 224]
Return: 6.57

Enquiry: Any idea what pIC50 was measured for CCn1cc(-c2cccc(C(NC(=O)c3cccc(C)c3Cl)C3(O)CCC(F)(F)CC3)c2)cn1 (single isomer, unassigned) [Compound 151] ?
Return: 5.48

Enquiry: Quick one: pIC50 of CS(=O)(=O)c1ccc(C(F)(F)F)cc1C(=O)NC(c1cc(Cl)ccn1)[C@]1(O)CC[C@@H](F)CC1 (single isomer, unassigned) [Compound 396] ?
Return: 6.54

Enquiry: Item O=C(NC(c1cccc(F)c1)C1(O)CCCCC1)c1nccc(C(F)(F)F)c1Cl (single isomer, unassigned) [Compound 68] has what recorded pIC50?
Return: 5.59

Enquiry: What does the record list as pIC50 for O=C(NC(c1cccc(F)c1Cl)[C@]1(O)CC[C@@H](F)CC1)c1c(Cl)nc2ccccn12 (single isomer, unassigned) [Compound 262] ?
Return: 5.06

Enquiry: Given the molecule Cc1ccc(Cl)c(C(=O)NC(c2cccc(F)c2Cl)[C@]2(O)CC[C@@H](F)CC2)c1 (single isomer, unassigned) [Compound 294] , what is its reported pIC50?
Return: 6.00

Enquiry: Recorded pIC50 for CCn1cc(-c2cccc(C(NC(=O)c3cc(C(F)(F)F)ccc3Cl)C3(O)CCC(F)(F)CC3)c2)cn1 (stereo not drawn) [Compound 180] , please?
Return: 6.68

Enquiry: Item under review: O=C(NC(c1ccc(F)cc1Cl)C1(O)CCCC1)c1nccc(C(F)(F)F)c1Cl (single isomer, unassigned) [Compound 100] . Reported pIC50?
Return: 7.23

Enquiry: For O=C(NC(c1cccc(F)n1)[C@]1(O)CC[C@@H](F)CC1)c1nccc(C(F)(F)F)c1Cl (single isomer, unassigned) [Compound 329] , what is its reported pIC50?
Return: 6.85
